Consider the following compounds and their measured MFC readings.
- System: Aspergillus fumigatus
- assay_procedure: Antimicrobial activity against Aspergillus fumigatus isolate by broth microdilution method
- Assay type: functional

Some solved cases for reference:
- molecular_string: "O=C(NCc1cccnc1)c1ccoc1"
  MFC: "320 µg/mL"
- molecular_string: "N=C(NC(=O)c1ccoc1)c1ccccc1"
  MFC: "320 µg/mL"
- molecular_string: "O=C(Nn1cnnc1)c1ccoc1"
  MFC: "320 µg/mL"
- molecular_string: "O=C(Nc1ccccc1O)c1ccoc1"
  MFC: "320 µg/mL"
- molecular_string: "Cc1ccc(S(=O)(=O)NNC(=O)c2ccoc2)cc1"
  MFC: "320 µg/mL"

We now examine a further compound.
Task: GET /values?readout=MFC&item= O=C(NNc1ccccc1)c1ccoc1
Result: 20 µg/mL

###

- System: Aspergillus fumigatus
- assay_procedure: Antimicrobial activity against Aspergillus fumigatus isolate by broth microdilution method
- Type: functional
property_label: MIC
Write the numeric value and follow it with the unit.

Known MIC results, listed for orientation:
- molecular_string: "O=C(Nn1cnnc1)c1ccoc1"
  property_label: "MIC"
  reading: "320 µg/mL"
- molecular_string: "N=C(NC(=O)c1ccoc1)c1ccccc1"
  property_label: "MIC"
  reading: "320 µg/mL"

Lab note: next compound to report on.
Task: Value wanted: MIC (Aspergillus fumigatus) of entry CN(C)c1ccc(CNC(=O)c2ccoc2)cc1
Result: 320 µg/mL

###

Entries and their measured MIC follow.
- Test system: Saccharomyces cerevisiae
- assay_procedure: Antimicrobial activity against Saccharomyces cerevisiae ATCC 2601 by broth microdilution method
- Type: functional

Known results for compounds:
- compound: "O=C(NCc1cccnc1)c1ccoc1"
  MIC: "320 µg/mL"
- compound: "O=C(Nc1ccccc1O)c1ccoc1"
  MIC: "160 µg/mL"
- compound: "O=C(Nn1cnnc1)c1ccoc1"
  MIC: "80 µg/mL"
- compound: "Cc1ccc(S(=O)(=O)NNC(=O)c2ccoc2)cc1"
  MIC: "160 µg/mL"
- compound: "CN(C)c1ccc(CNC(=O)c2ccoc2)cc1"
  MIC: "160 µg/mL"

Task: Recorded MIC of O=C(NCCCO)c1ccoc1 , please.
Result: 320 µg/mL

###

- Test system: Scedosporium boydii
- assay_procedure: Antimicrobial activity against Pseudallescheria boydii isolate by broth microdilution method
- Format: functional
Under this convention, T denotes MIC strictly below 200 µg/mL and F denotes MIC at or above 200 µg/mL.

Study these solved cases before continuing.
- compound: "O=C(NNc1ccccc1)c1ccoc1"
  discrete_label: "T"
- compound: "CN(C)C(=O)c1ccoc1"
  discrete_label: "T"
- compound: "Cc1ccc(S(=O)(=O)NNC(=O)c2ccoc2)cc1"
  discrete_label: "T"
- compound: "CN(C)c1ccc(CNC(=O)c2ccoc2)cc1"
  discrete_label: "T"
- compound: "C[C@@H]1[C@H](O)[C@@H](C)/C=C/C=C/C=C/C=C/C=C/C=C/C=C/[C@H](O[C@@H]2O[C@H](C)[C@@H](O)[C@H](N)[C@@H]2O)C[C@@H]2O[C@](O)(C[C@@H](O)C[C@@H](O)[C@H](O)CC[C@@H](O)C[C@@H](O)CC(=O)O[C@H]1C)C[C@H](O)[C@H]2C(=O)O [AMPHOTERICIN B]"
  discrete_label: "T"

Task: Please determine if O=C(NCc1ccncc1)c1ccoc1 is below 200 µg/mL in terms of MIC.
Result: F

Task: Say whether its MIC is strictly beneath 200 µg/mL. Entry: O=C(NCc1cccnc1)c1ccoc1
Result: T

Task: Hello, I'm reviewing records and need to know if MIC of O=C(NCCC1CCN(Cc2ccccc2)CC1)c1ccoc1 is below 200 µg/mL. Could you check?
Result: T

Task: Dear reviewer, please state whether O=C(NCCCO)c1ccoc1 has MIC strictly beneath 200 µg/mL.
Result: F

Task: Is the reported MIC for O=C(Nc1nc[nH]n1)c1ccoc1 strictly below 200 µg/mL?
Result: F

Task: Does this compound meet the criterion MIC < 200 µg/mL? N=C(NC(=O)c1ccoc1)c1ccccc1
Result: T

Task: Determine if O=C(Nc1ccccc1O)c1ccoc1 shows MIC strictly lower than 200 µg/mL.
Result: T

Task: Please state whether MIC is below 200 µg/mL for O=C(NCc1ccccn1)c1ccoc1
Result: F
